systemUnderTest: KRAS G12V (Homo sapiens, UniProt P01116, G12V)
Sequence (P01116 with tags, fused parts or gaps isoform P01116-2 G12V): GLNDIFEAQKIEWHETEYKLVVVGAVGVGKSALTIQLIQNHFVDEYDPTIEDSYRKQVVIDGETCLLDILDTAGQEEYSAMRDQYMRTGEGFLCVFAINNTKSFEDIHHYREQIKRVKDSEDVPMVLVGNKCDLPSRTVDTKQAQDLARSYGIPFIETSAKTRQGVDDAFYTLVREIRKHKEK
protocolSummary: SOS-catalyzed nucleotide exchange assay, KRAS G12V (Procedure A)
Format: biochemical
experimentalConditions: GNE
pIC50: −log10 of the molar value.
quantityName: pIC50

Illustrative cases are given below, each with its answer.
Cc1cc2[nH]ncc2c(-c2nccc3c2sc2nc(OC[C@]4(CO)CC4(F)F)nc(N4C[C@H]5CC[C@@H](C4)N5)c23)c1OC(F)F = < 4.95
Cc1cc2[nH]nc(C#N)c2c(-c2nccc3c2sc2nc(OC[C@@]45CCCN4C[C@H](F)C5)nc(N4C[C@H]5CC[C@@H](C4)N5)c23)c1C(F)F = < 4.95
Fc1ccc2cc3[nH]ncc3c(-c3nccc4c3C3(CC3)c3nc(OC[C@@]56CCCN5C[C@H](F)C6)nc(N5C[C@H]6CC[C@@H](C5)N6)c3-4)c2c1Cl (single isomer, unassigned) = 6.07
C#Cc1c(F)ccc2cc3[nH]ncc3c(-c3nccc4c3sc3nc(OC[C@@]56CCCN5C[C@H](F)C6)nc(N5C[C@H]6CC[C@@H](C5)N6)c34)c12 = 6.55
Cc1cc2[nH]ncc2c(-c2nccc3c2sc2nc(OCC4(CO)CCC4)nc(N4C[C@H]5CC[C@@H](C4)N5)c23)c1C(F)F = < 4.95
C#Cc1c(F)ccc2cc3[nH]ncc3c(-c3nccc4c3sc3nc(OCC5(C#N)CCOCC5)nc(N5C[C@H]6CC[C@@H](C5)N6)c34)c12 = < 4.95
C#Cc1csc2cc3[nH]ncc3c(-c3nccc4c3sc3nc(OCC5(C#N)CCOCC5)nc(N5C[C@H]6CC[C@@H](C5)N6)c34)c12 = < 4.95
Cc1cc2[nH]ncc2c(-c2nccc3c2sc2nc(OC[C@@]45CCCN4C[C@H](F)C5)nc(N4[C@@H]5CC[C@H]4CNC5)c23)c1C(F)(F)F = 5.29
C#Cc1c(F)ccc2cc3[nH]ncc3c(-c3nccc4c3sc3nc(OC[C@]5(CO)CC5(F)F)nc(N5C[C@H]6CC[C@@H](C5)N6)c34)c12 = < 4.96
C#Cc1c(F)ccc2cc3[nH]ncc3c(-c3nccc4c3sc3nc(OC[C@]5(CN6CC[C@@H](F)C6)CC5(F)F)nc(N5C[C@H]6CC[C@@H](C5)N6)c34)c12 = 5.03

Ask: Which pIC50 value belongs to "Cn1c2nc(OC[C@@]34CCCN3C[C@H](F)C4)nc(N3C[C@H]4CC[C@@H](C3)N4)c2c2ccnc(-c3ccc(F)c4sc(N)c(C#N)c34)c21" ?
Reply: < 4.95

Ask: // query pIC50 value for entry "Cc1cc2[nH]ncc2c(-c2nccc3c2sc2nc(OC[C@@]45CCCN4C[C@H](F)C5)nc(N4[C@@H]5CC[C@H]4CN(C)C5)c23)c1C(F)(F)F"
Reply: < 4.95

---

systemUnderTest: UniProtKB P01116
protocolSummary: SOS-catalyzed nucleotide exchange assay, KRAS WT (Procedure A)
Assay type: biochemical
experimentalConditions: GNE
quantityName: IC50

The following molecules have reported results that may help.
Cc1cc2[nH]ncc2c(-c2nccc3c2sc2nc(OCC4(C)CS(=O)(=O)C4)nc(N4C[C@H]5CC[C@@H](C4)N5)c23)c1C(F)(F)F = > 11.1 µM
Cc1cc2[nH]nc(C#N)c2c(-c2nccc3c4c(N5C[C@H]6CC[C@@H](C5)N6)nc(OC[C@@]56CCCN5C[C@H](F)C6)nc4n(C)c23)c1C(F)(F)F (single isomer, unassigned) = > 11.1 µM

// next item, IC50 requested
Ask: Param readout= IC50; system= UniProtKB P01116; entry= "Cc1cc2[nH]ncc2c(-c2nccc3c4c(N5CC[C@H]6NCC[C@H]65)nc(OC[C@@]56CCCN5C[C@H](F)C6)nc4n(C)c23)c1C(F)(F)F" ; returns value.
Reply: 6.33 µM
